Measurement description: small-molecule binders of probe aNOTCH2, primary screen, biochemical, small-molecule microarray, 635/667 nm fluorescence (AID 1121);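 further: score merges feature fluorescence read at 667 nm with its signal to noise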
Study conditions: higher = more signal
Value type: composite z-score
Give the figure by itself; no unit, no explanation.

Field: example entries. Status: answers known.
Compound	Value type	Readout number
O=C1[C@H]2[C@H]3[C@H](O)[C@H](O)CC(=NOCc4ccccc4)[C@@H]3CC[C@H]2C(=O)N1c1cccc(Oc2ccccc2)c1	composite z-score	-0.147
COc1ccc(COC(=O)NN=C2C[C@@H](O)[C@@H](O)[C@@H]3[C@@H]4C(=O)N(Cc5ccc6c(c5)OCO6)C(=O)[C@@H]4CC[C@H]23)cc1	composite z-score	-0.0523
COC(=O)[C@H](C)NC(=O)CCC1CC(OC(=O)NCc2cccc3ccccc23)CC2(CCCC(COC(=O)NCCOc3ccccc3)O2)O1 (some centres not stated)	composite z-score	-0.161
COC(=O)[C@H](C)NC(=O)CCC1CC(OC(=O)NCCc2ccc(F)cc2)CC2(CCCC(COC(=O)NCCc3ccccc3OC)O2)O1 (some centres not stated)	composite z-score	-0.0061
CCOC(=O)NN=C1C[C@@H](O)[C@@H](O)[C@@H]2[C@@H]3C(=O)N(c4ccc(F)cc4F)C(=O)[C@@H]3CC[C@H]12	composite z-score	-0.107
C=CCOCC1CN2[C@@H](CC[C@@H](C)[C@@H]2c2ccc(Br)cc2)C(=O)O1 (some centres not stated)	composite z-score	-0.189

Task item: Value lookup for composite z-score; key = `O=C1C[C@H](c2ccccc2)[C@H](c2ccc(Br)cc2)O1`
Reply: -0.117

---

Measurement description: modulators of S6 phosphorylation in cells, primary screen, cell-based, A549, cytoblot, luminescence, serum-stimulated (AID 1158);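 further: serum-stimulated A549 lung adenocarcinoma cells; signal is phosphorylated S6 detected by cytoblot immunostaining with HRP secondary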
Study conditions: A549 phospho-S6 cytoblot, 5 h, higher = more signal
Value type: z-score
Could you respond with only the numeric value?

Below: 5 molecules and their reported z-score.
Molecule	z-score
CC(CCN1CCCc2nc(C)c(C)cc21)=NO[C@H](C)c1cn([C@H](CO)Cc2ccccc2)nn1	-0.0039
CCOC(=O)CCN1C(=O)[C@H]2[C@H]3[C@H](O)[C@H](O)CC(=NNC(=O)OCc4ccccc4)[C@H]3CC[C@H]2C1=O	-0.707
COC(=O)CC=C[C@@H](C)[C@@H](C=NOC[C@@H](O)[C@H]1O[C@@H]2OC(C)(C)O[C@@H]2[C@H]1O)OC	-0.332
COCOc1ccc(Br)cc1C(=O)C=Cc1ccc2c(c1)OCO2	0.835
CC(C)=NOC(C)CN1CCCCc2nc(C)c(C)cc21 (stereo unspecified)	-0.618

Task item: Endpoint output: z-score of `COCC#Cc1ccc([C@@H]2N[C@H](C(=O)O)CC[C@H]2C)cc1` . Value?
Reply: 2.16

Task item: Param item = `C[C@@H](c1ccccc1)N1C(=O)[C@H]2[C@H]3[C@H](O)[C@H](O)CC(=NOC[C@@H](O)COCc4ccco4)[C@H]3CC[C@H]2C1=O` ; retrieve measured z-score.
Reply: -0.632

Task item: Consider the molecule `O=C1[C@H]2[C@H]3[C@H](O)[C@H](O)CC(=NOC[C@@H](O)COCc4ccco4)[C@@H]3CC[C@H]2C(=O)N1Cc1ccc2c(c1)OCO2` and give its measured z-score.
Reply: 0.236

Task item: What does the record list as z-score for `COC(=O)[C@@H]1CC[C@H](C)[C@@H](c2ccc(C)cc2)N1C(=O)c1ccc(C=NOC[C@H]2O[C@H](c3ccccc3)C=C[C@@H]2Oc2ccc(OC)cc2)cc1` ?
Reply: -0.0476

Task item: Requested field: z-score. Item: `COC(=O)CC=C[C@@H](C)[C@@H](C=NOC[C@@H](C)[C@H](OCc1ccccc1)C(C)C)NS(=O)(=O)c1ccc(C)cc1`
Reply: -0.222
